- Tested on: PIK3C2G;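 note: KINOMEscan kinase panel screen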
- particulars: concentration: 1 μM, replicates: in singlicate; n = 1

{"compound": "CN1c2ccc(CNc3ccc(F)cc3)cc2-c2c(cnn2C)S1(=O)=O", "targetEntity": "PIK3C2G", "%Inh, %": 41}
{"compound": "O=C(NCCNc1ccnc(Nc2ccc(F)cc2)n1)c1cc2ccccc2s1", "targetEntity": "PIK3C2G", "%Inh, %": 0}
{"compound": "O=c1cc(N2CCOCC2)nc2n(Cc3cccc(C(F)(F)F)c3)ccn12", "targetEntity": "PIK3C2G", "%Inh, %": 0}
{"compound": "COc1ccc(Nc2nccc(N3CCC(NC(=O)Nc4cccc(C(C)=O)c4)C3)n2)cc1 (stereo not drawn)", "targetEntity": "PIK3C2G", "%Inh, %": 0}
{"compound": "CSc1ccc(-c2cc3ncnc(SCC(=O)O)c3s2)cc1", "targetEntity": "PIK3C2G", "%Inh, %": 0}
{"compound": "CN1c2ccc(NCc3ccc(F)cc3)cc2-c2c(cnn2C)S1(=O)=O", "targetEntity": "PIK3C2G", "%Inh, %": 0}
{"compound": "[2H]C([2H])(c1cccc(C(F)(F)F)c1C)n1ccn2c(=O)nc(N3CCOCC3)cc12", "targetEntity": "PIK3C2G", "%Inh, %": 0}
{"compound": "CN(C(=O)c1ccc(-c2cc(-c3c[nH]nc3-c3ccccn3)ccn2)cc1)C1CCOCC1", "targetEntity": "PIK3C2G", "%Inh, %": 10}
{"compound": "O=C(NOCC1CC1)c1ccc(F)c(F)c1Nc1ccc(I)cc1Cl", "targetEntity": "PIK3C2G", "%Inh, %": 0}
{"compound": "O=C(NCCCN1CCOCC1)c1cccc(Nc2nccc(Nc3ccc(Oc4ccccc4)cc3)n2)c1", "targetEntity": "PIK3C2G", "%Inh, %": 0}
{"compound": "COc1cc2ncn(-c3cc(OCc4sccc4Cl)c(C(N)=O)s3)c2cc1OC", "targetEntity": "PIK3C2G", "%Inh, %": 0}
{"compound": "CCc1ccnc(/C=C/c2n[nH]c3cc(Sc4ccccc4C(=O)NC)ccc23)c1", "targetEntity": "PIK3C2G", "%Inh, %": 0}
{"compound": "Cc1cccc(Cn2ccn3c(=O)cc(N4CCOCC4)nc23)c1", "targetEntity": "PIK3C2G", "%Inh, %": 0}
{"compound": "NS(=O)(=O)CCc1cccc(Nc2nccc(-c3c(-c4cccc(NC(=O)c5c(F)cccc5F)c4)nn4ccccc34)n2)c1", "targetEntity": "PIK3C2G", "%Inh, %": 0}
{"compound": "Cn1ccc2ncnc(Oc3ccc(NC(=O)Nc4ccncc4)c(Cl)c3)c21", "targetEntity": "PIK3C2G", "%Inh, %": 43}
{"compound": "COCCNC(=O)c1ccc(-c2cc(C(=O)NC3CC3)cc(F)c2C)cc1", "targetEntity": "PIK3C2G", "%Inh, %": 38}
{"compound": "CC(=O)Nc1ccc(COc2ccc(Nc3ccnc4cc(-c5ccccn5)ccc34)cc2)cc1.Cl", "targetEntity": "PIK3C2G", "%Inh, %": 0}
{"compound": "O=C(NCCNc1ccnc(Nc2ccc(F)cc2)n1)Nc1ccccc1F", "targetEntity": "PIK3C2G", "%Inh, %": 62}
{"compound": "NS(=O)(=O)c1cccc(-c2ccc3ncc(N4CCOCC4)nc3c2)c1", "targetEntity": "PIK3C2G", "%Inh, %": 14}
{"compound": "COc1ccc(S(=O)(=O)NC2CCN(c3cc(C)nc(Nc4cccc(C#N)c4)n3)CC2)cc1.O=C(O)C(F)(F)F", "targetEntity": "PIK3C2G", "%Inh, %": 0}
{"compound": "CN(C1=C(c2ccccc2)C(=O)NC1=O)c1ccccc1", "targetEntity": "PIK3C2G", "%Inh, %": 3}
